Tm values for the sequences below.
Experiment: melting temperature; fluorescence melt of hairpins on a sequencing array, two-state fit, raised by 9.35 °C to match UV melts
Conditions: sodium 0.088 M
API: value field is a number in °C; no unit string.

Ask: Which value of Tm has been reported for CGTGCCGGAAACGGTACG (((.(((....))).))) in the records?
Reply: 60.3

Ask: // lookup Tm for GCGAAGATTCGC ((((....))))
Reply: 49

Ask: What does the record list as Tm for GTGATCGAAAGATGACAC ((((((....)))..))) ?
Reply: 33.4

Ask: Requested read-out: Tm. Entry: GATCCAATTGTGGATC ((((((....))))))
Reply: 49.6

Ask: Item under review: GTGTTGACGAAAGTCCAC (((..(((....)))))) . Reported Tm?
Reply: 41.6

Ask: I am curious: what Tm value has been reported for GTGTGCCGAAAGGCTCAC (((.(((....))).))) ?
Reply: 61.2

Ask: If you can, please state the reported Tm value of GGATCCCGAAAGGGGTCC (((.(((....))).))) .
Reply: 65.8

Ask: I would be grateful if you could share the reported Tm for GATCTGTAAGCAGATC ((((((....)))))) .
Reply: 51.4

Ask: Please give the measured Tm for this sequence: GGGATCGAAAGATCCCCC ((((((....)))..)))
Reply: 68.2

Ask: Tm lookup needed for GATCCTCTCAAGGATC ((((((....)))))) , thanks.
Reply: 53.2

Ask: For the sequence shown here, GCAGTGCGAAAGCACCGC ((.((((....)))).)) , give the reported Tm.
Reply: 62

====

Assay: folding enthalpy; higher = less favourable; fluorescence melt of hairpins on a sequencing array, two-state fit
Details: sodium 0.088 M
measured.attribute: folding enthalpy
Express the reported value numerically, then name its unit.

Ask: Requested read-out: folding enthalpy. Entry: GCTTAGGGAAACCCAAGC ((((.((....)).))))
Reply: -26.7 kcal/mol

Ask: What value of folding enthalpy has been reported for the following sequence? GCTAAGCGAAAGCTATGC ((..(((....)))..))
Reply: -20.4 kcal/mol

Ask: For the sequence shown here, GATCGAGTGGTCGATC ((((((....)))))) , give the reported folding enthalpy.
Reply: -8.38 kcal/mol

====

Assay: folding enthalpy; higher = less favourable; fluorescence melt of hairpins on a sequencing array, two-state fit
Conditions: sodium 0.088 M
Would you please tag the item 1 (yes) when its folding enthalpy is -20 kcal/mol or above, and 0 (no) when it is below?

Examples with answers:
{"columns": ["polymer.sequence", "label.class"],
 "data": [
  ["GATCGGCGACCGATC ((((((...))))))", "0 (no)"],
  ["GATAGACGAAAGTCAATC (((.(((....))).)))", "0 (no)"],
  ["GGATAGCGAAAGCTGTCC (((.(((....))).)))", "0 (no)"],
  ["GCCAGCGGAAACACTGGC (((((.(....).)))))", "0 (no)"],
  ["GATCGGAGACCGATC ((((((...))))))", "0 (no)"],
  ["GTGTACGAAAGTAGCCAC ((((((....)))..)))", "1 (yes)"],
  ["GTGATCGCGAAAGCGCAC (((..(((....))))))", "1 (yes)"],
  ["GGCCGAACGAAAGTTGCC (((..(((....))))))", "0 (no)"],
  ["CGAAAGAAATTTCG (((((....)))))", "1 (yes)"],
  ["GCTCACGAAAGTGTAAGC ((((((....)))..)))", "1 (yes)"]
]}

Switching to the query record.
Ask: Could you please find out whether GTTATTGGAAACAATGAC ((.((((....)))).)) has folding enthalpy that meets -20 kcal/mol or exceeds it?
Reply: 0 (no)
